# reported koff; entries follow
study system: T1, human interleukin-2 (recombinant human IL-2, teceleukin) (human, UniProt P60568 21-153)
T1 construct: also called hIL-2; rhIL-2
T1 sequence (P60568 21-153 limits assumed): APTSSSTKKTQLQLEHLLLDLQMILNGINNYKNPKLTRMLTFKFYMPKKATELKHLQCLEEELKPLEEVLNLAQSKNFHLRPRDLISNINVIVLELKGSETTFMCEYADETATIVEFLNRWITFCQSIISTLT
assay protocol: SPR
Kindly provide the numeric value in s⁻¹ only, without the unit symbol.

Query: Endpoint output: koff of UFKA-22-13 (antibody, human IgG1, V domains shown) VH: EVQLVESGGGLVKPGGSLRLSCAASGFSFSNYAMSWVRQAPGKGLEWVSLISGGGSYSYYPDSLKGRFTISRDSAKNSLYLQMSSLRAEDTAMYYCARHMGYNDYLAWFAYWGQGTLVTVSS VL: DIVMTQSPDSLAVSLGERATINCKSSQSLLNSANQKNYLAWYQQKPGQPPKLLIYFASTRESGVPDRFIGSGSGTDFTLTISSLQAEDVAVYYCQQYYSAPPWTFGGGTKVEIK . Value?
Reply: 0.00277

Query: Also UFKA-22-10 (antibody, human IgG1, V domains shown) VH: EVQLVESGGGLVKPGGSLRLSCAASGFSFSNYAMSWVRQAPGKGLEWVSLISGGGSYSYYPDSLKGRFTISRDSAKNSLYLQMSSLRAEDTAVYYCARHMGYNDYLAWFAYWGQGTLVTVSS VL: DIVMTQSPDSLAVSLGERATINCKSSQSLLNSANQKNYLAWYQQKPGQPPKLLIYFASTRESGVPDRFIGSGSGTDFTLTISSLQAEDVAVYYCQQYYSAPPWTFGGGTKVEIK , if possible.
Reply: 0.00283

Query: Also UFKA-22-12 (antibody, human IgG1, V domains shown) VH: EVQLVESGGGLVKPGGSLRLSCAASGFSFSNYAMSWVRQAPGKGLEWVSLISGGGSYSYYPDSLKGRFTISRDNAKNSLYLQMSSLRAEDTAMYYCARHMGYNDYLAWFAYWGQGTLVTVSS VL: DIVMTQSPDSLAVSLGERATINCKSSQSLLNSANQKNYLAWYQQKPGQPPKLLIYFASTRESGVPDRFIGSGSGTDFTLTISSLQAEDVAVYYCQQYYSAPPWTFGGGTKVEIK , if possible.
Reply: 0.0024

Ref: patent US20230303680A1
